- Target Of Assay: T1, Human OX40 (Sino Biological Inc) (human, UniProt P43489 29-216, limits assumed)
- T1 construct: Bought soluble protein used as SPR analyte; also called huOX40
- T1 sequence: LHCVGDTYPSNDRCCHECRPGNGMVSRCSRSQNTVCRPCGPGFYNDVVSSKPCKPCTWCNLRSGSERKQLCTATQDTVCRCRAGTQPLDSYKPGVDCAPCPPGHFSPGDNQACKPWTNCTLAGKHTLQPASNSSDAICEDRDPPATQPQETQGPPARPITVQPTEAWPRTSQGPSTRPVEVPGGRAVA
- Test Protocol: SPR (Biacore), antibody captured via anti-human Fc, huOX40 analyte
- Method: The binding kinetics of the anti-OX40 antibodies was measured using surface plasmon resonance (SPR) on a Biacore 3000 instrument (GE Healthcare). […] Antibody binding was measured to human OX40 (Sino Biological Inc). […] Sensorgrams for binding of OX40 were recorded using an injection time of 2 minutes with a flow rate of 30 μl/min, at a temperature of 25° C., and with a running buffer of 10 mM HEPES, pH 7.4, 150 mM NaCl, and 0.005% Tween 20. […]
Property Name: Kd (pM)
Use pM as the unit, but write only the number.

Ask | Entry under review: 1A7.gr.NADA (antibody, V domains shown) VH: EVQLVQSGAEVKKPGASVKVSCKASGYTFTDSYMSWVRQAPGQGLEWIGDMYPDNADASYNQKFRERVTITRDTSTSTAYLELSSLRSEDTAVYYCVLAPRWYFSVWGQGTLVTVSS VL: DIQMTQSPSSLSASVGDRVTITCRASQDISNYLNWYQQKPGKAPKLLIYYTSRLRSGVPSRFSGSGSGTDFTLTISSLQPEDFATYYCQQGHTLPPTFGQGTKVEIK . Reported Kd?
Reply | 355

Ask | Next record, please: 1A7.gr.DA (antibody, V domains shown) VH: EVQLVQSGAEVKKPGASVKVSCKASGYTFTDAYMSWVRQAPGQGLEWIGDMYPDNGDSSYNQKFRERVTITRDTSTSTAYLELSSLRSEDTAVYYCVLAPRWYFSVWGQGTLVTVSS VL: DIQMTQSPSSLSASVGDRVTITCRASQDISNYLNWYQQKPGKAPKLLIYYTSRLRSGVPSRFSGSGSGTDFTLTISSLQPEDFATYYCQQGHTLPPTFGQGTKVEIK
Reply | 259

Ask | Also check 1A7.gr.NGSS (antibody, V domains shown) VH: EVQLVQSGAEVKKPGASVKVSCKASGYTFTDSYMSWVRQAPGQGLEWIGDMYPDNGSSSYNQKFRERVTITRDTSTSTAYLELSSLRSEDTAVYYCVLAPRWYFSVWGQGTLVTVSS VL: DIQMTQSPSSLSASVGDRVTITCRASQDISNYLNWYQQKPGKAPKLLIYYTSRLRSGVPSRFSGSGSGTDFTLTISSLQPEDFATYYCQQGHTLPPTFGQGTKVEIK
Reply | 311
